- Experimental Protocol: Acid resistance (half-life period)
- Format: physicochemical
- Run Conditions: acid ph 1.3; Temperature 37° C, pH 1.3; Table 2, cyclopropyl series; read-out: τ1/2 half-life period (acid resistance)
- Protocol: All compounds of this group were prepared in the form of sodium salts. Bactericidal activity, degree of hydrolysis with staphylococc penicillinase and acid resistance of the penicillins were determined.
Quick list: half-life per entry.
Only the number, expressed in min, is required.

- COc1cccc(C2(C(=O)NC3C(=O)N4C3SC(C)(C)C4C(=O)O)CC2)c1 (centres unmarked): 7.2
- CCCCOc1ccc(C2(C(=O)N[C@@H]3C(=O)N4[C@@H]3SC(C)(C)[C@@H]4C(=O)O)CC2)cc1: 6.1
- CC(C)Oc1ccccc1C1(C(=O)NC2C(=O)N3C2SC(C)(C)C3C(=O)O)CC1 (centres unmarked): 6
- CC1(C)SC2C(NC(=O)C3(c4ccccc4)CC3)C(=O)N2C1C(=O)O (centres unmarked): 9.9

Consider now this further molecule.
In plain terms, COc1ccc(C2(C(=O)N[C@@H]3C(=O)N4[C@@H]3SC(C)(C)[C@@H]4C(=O)O)CC2)cc1 has a documented half-life of 7.3
